Assay: NCI Yeast Anticancer Drug Screen. Data for the rad50 strain (AID 155);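 note: 0% = growth of vehicle-only cultures of the same strain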
Details: S. cerevisiae rad50 strain growth inhibition; at 50.0 µM; stronger effect = higher value
Compounds without any hit were thinned out: in the full panel of roughly 79,000, 15% have a hit.
Quick rule: growth inhibition of at least 70% means true (1), below that means false (0).

# compound, discreteLabel
data = [
    ("Cc1ccc(N2CC(O)CN(c3ccc(C)cc3)CC(O)C2)cc1 (stereo unspecified)", "false (0)"),
    ("Cc1cc(S(=O)(=O)Nc2n[nH]c(-c3ccccn3)n2)c(S)cc1Cl", "true (1)"),
    ("CC[n+]1ccc(Nc2ccc(NC(=O)c3ccc(C(=O)Nc4ccc(Nc5cc[n+](CC)c(N)n5)cc4)cc3)cc2)nc1N", "true (1)"),
    ("O=c1ncccn1[C@@H]1O[C@H](CO)[C@H](O)C1O (stereo partly specified)", "false (0)"),
    ("CCCC[NH-].CCCC[NH-].[I][Pt+2][I]", "false (0)"),
]

###

Test: NCI Yeast Anticancer Drug Screen. Data for the rad50 strain (AID 155);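 note: 0% = growth of vehicle-only cultures of the same strain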
Conditions: S. cerevisiae rad50 strain growth inhibition; at 50.0 µM
Compounds without any hit were thinned out: in the full panel of roughly 79,000, 15% have a hit. Active and inactive are the calls of the source. Rule as the data show it: active = growth inhibition above about 70%; inactive = the rest.
Labels: T for active, F for inactive

# compound, discreteLabel
measured = [
    ("CC(C)C1=CC[C@H]2C(=C1)CC[C@@H]1[C@]2(C)CCC[C@@]1(C)C(=O)O", "T"),
    ("CC(=O)c1c(O)c2cccc3c2n(c1=O)CCC3", "T"),
    ("CCC#CC(O)(C(=O)OCC)C1CCCC1 (stereo unspecified)", "F"),
    ("O=C1C(Cl)=C(c2ccc([N+](=O)[O-])cc2)C(=O)c2c(O)cccc21", "T"),
    ("CN(c1ccc(Cl)cc1)S(=O)(=O)c1cccc([N+](=O)[O-])c1", "F"),
    ("CNC(=S)N(C)C(=S)Nn1c(=O)c(C)nn(C)c1=S", "T"),
    ("CCCCCCCCCCCCO", "F"),
    ("c1ccc([P+](C[P+](c2ccccc2)(c2ccccc2)c2ccccc2)(c2ccccc2)c2ccccc2)cc1", "F"),
    ("CCN(CC)P(=S)(c1ccccc1CCP(=S)(c1ccccc1)c1ccccc1)N(CC)CC", "T"),
    ("O=[N+]([O-])/C(Cl)=C(\\Nc1ccccc1)C(Cl)=C(Cl)Cl", "T"),
    ("CN(C)c1ccc(C2(c3ccc(N(C)C)cc3)OC(=O)c3ccccc32)cc1", "F"),
]

###

Experiment: NCI Yeast Anticancer Drug Screen. Data for the rad50 strain (AID 155);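 note: 0% = growth of vehicle-only cultures of the same strain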
Details: S. cerevisiae rad50 strain growth inhibition; at 5.0 µM (retest, dose inferred, filed as 0.5)
The panel holds about 79,000 compounds, 15% with a hit somewhere; the sample as a whole holds those more often. Calls of active or inactive are those of the source. No stated cut-off is given here; in the data, active means growth inhibition above about 70%; inactive means the rest.
Labels: yes (1) = active, no (0) = inactive

# compound, discreteLabel
rows = [
    ("CC[n+]1c(/C=C/c2ccc(N(C)C)cc2)ccc2ccccc21", "no (0)"),
    ("COc1ccc2nc(NC(=O)Nc3c(Cl)cccc3Cl)sc2c1", "no (0)"),
    ("O=[N+]([O-])c1cc(NC(=S)SCc2ccccc2)ccc1Cl", "yes (1)"),
    ("O=C(Nc1cccc(Cl)c1)OCCOC(=O)Nc1cccc(Cl)c1", "no (0)"),
    ("Cc1ccc2c(c1)C(O)(c1ccccc1)C(c1ccccc1)C(c1ccccc1)O2 (centres undefined)", "yes (1)"),
    ("C(=C\\[P+](c1ccccc1)(c1ccccc1)c1ccccc1)/c1ccccc1", "yes (1)"),
    ("O=C1OC(c2ccc3c(c2)OCO3)Sc2ccccc21 (centres undefined)", "no (0)"),
    ("C=CCOc1ccc(-c2ccccc2)cc1C(=O)NC", "no (0)"),
    ("O=[N+]([O-])/C(Cl)=C/C(=C1/Nc2ccccc2O1)[N+](=O)[O-]", "no (0)"),
    ("CN(Cc1cc(Cl)cc(Cl)c1)CC(C(=O)c1ccccc1)c1ccccc1 (centres undefined)", "no (0)"),
    ("c1ccc2c(c1)oc1cc3ccncc3cc12", "no (0)"),
    ("Cc1ccc(-c2c3nc(c(-c4ccc(C)cc4)c4ccc([nH]4)c(-c4ccc(C)cc4)c4nc(c(-c5ccncc5)c5ccc2[nH]5)C=C4)C=C3)cc1.Cc1ccc(-c2c3nc(c(-c4ccc(C)cc4)c4ccc([nH]4)c(-c4ccc(C)cc4)c4nc(c(-c5ccncc5)c5ccc2[nH]5)C=C4)C=C3)cc1.O=S(=O)([O-])C(F)(F)F.[Pt+2].c1ccc([PH+](CCC[PH+](c2ccccc2)c2ccccc2)c2ccccc2)cc1", "no (0)"),
    ("O=C1C(Cl)=C(Cl)C(=O)C2=C1CC(Cl)C(Cl)C2 (centres undefined)", "yes (1)"),
    ("Cc1[nH]nc(C(=O)N/N=C/c2ccccc2Cl)c1N=NN(C)C", "no (0)"),
    ("CCCCCCCCCC(C)CC(=O)NCCCN(C)CCCCN(C)C (centres undefined) (tested in a mixture with another compound)", "no (0)"),
    ("CCCCN(CCCC)C(=O)c1ccc(OC(=O)OCC)c(OC)c1", "no (0)"),
    ("CC(C)/C=C1\\CCC(CN2CCOCC2)C1=O (centres undefined)", "no (0)"),
    ("Cc1nn(C(=O)c2ccccc2O)c2c1C(c1ccc([N+](=O)[O-])cc1)SC(N)=N2 (centres undefined)", "no (0)"),
    ("Oc1cc(Cc2ccccc2)c(Cc2ccccc2)cc1O", "no (0)"),
]

###

Assay: NCI Yeast Anticancer Drug Screen. Data for the bub3 strain (AID 167)
Details: S. cerevisiae bub3 mutant strain, at 5.0 µM (retest, dose inferred, filed as 0.5), stronger effect = higher value
About 79,000 compounds went through this panel and 15% of them were active in at least one assay; those are over-represented in the sample as a whole. The source made the active and inactive calls. Rule as the data show it: active = growth inhibition above about 70%; inactive = the rest.

# compound, growth inhibition
measured = [
    ("CCCCCCCCCCCCNCC(=O)O", "7% (inactive)"),
    ("COc1ccc(C(=O)[O][Sn]([c]2ccccc2)([c]2ccccc2)[c]2ccccc2)c(OC)c1OC", "100% (active)"),
    ("COc1ccc(C2C3CCCC(C(c4ccc(OC)cc4)N2C)C32NC(=O)NC2=O)cc1 (stereo unspecified)", "3% (inactive)"),
    ("CC1=C(C(=S)Nc2ccc(Cl)c(C(=O)OC(C)C)c2)SCCO1", "26% (inactive)"),
    ("CCN(CC)CCOc1ccc(C=C2c3ccccc3-c3ccccc32)cc1", "99% (active)"),
    ("COc1ccc2c(c1)C1(C)CCCC(C)(C(=O)O)C1CC2 (stereo unspecified)", "-8% (inactive)"),
]

###

Assay: NCI Yeast Anticancer Drug Screen. Data for the cln2 rad14 strain (AID 165);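 note: 0% = growth equal to vehicle treated cultures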
Conditions: S. cerevisiae cln2 rad14 strain, at 50.0 µM
The panel holds about 79,000 compounds, 15% with a hit somewhere; the sample as a whole holds those more often. Activity calls are given as the source filed them. Rule as the data show it: active = growth inhibition above about 70%; inactive = the rest. Where a SMILES comes first, the peptide text is derived from it. [ ]: non-standard residue; d: D form. The star is where a group is joined. mTyr = N[CH](Cc1cccc(O)c1)C(=O)O; Cbz = O=C(OCc1ccccc1)*; OBn = c1ccc(CO*)cc1
Labels: active, inactive

# molecule, discreteLabel
records = [
    ("Fc1ccc(NC(=S)SCc2ccccc2)cc1", "inactive"),
    ("N#Cc1sc2c(c1OC(=O)c1ccc(Cl)cc1)c(=O)n(-c1ccccc1)c(=S)n2-c1ccccc1", "inactive"),
    ("CC(C)Cc1cc2c(cc1O)CCC1C2CC[C@@]2(C)C1CC[C@@H]2O (stereo partly specified)", "active"),
    ("O=C1c2ccccc2C(=O)C2(C(c3ccccc3)c3ccccc3)N=NCC12 (stereo unspecified)", "inactive"),
    ("[O-][n+]1c2ccccc2cc2c1c1ccccc1n2O", "inactive"),
    ("Cc1cc(C)n2nc(N)c(C#N)c2c1C#N", "inactive"),
    ("CC12C=CC(=O)C=C1CCC1C3CCC(O)(C(=O)CO)C3(C)CC(O)C12F (stereo unspecified)", "active"),
    ("CC1(c2ccc(O)cc2)CC(C)(c2ccc(O)cc2)C1 (stereo unspecified)", "active"),
    ("C=CCc1ccc(OC(=O)CCl)c(OC)c1", "inactive"),
    ("Nc1ccccc1O", "inactive"),
    ("C(=C\\c1ccc(-[n+]2nc(-c3ccccc3)nn2-c2ccccc2)cc1)/c1ccccc1", "active"),
    ("CCCCCc1cc(Cl)cc(Cl)c1O", "inactive"),
    ("CCCCCCC[n+]1ccc(C(=O)c2ccccc2)cc1", "active"),
    ("CCCC(C)OC(=O)Nc1cccc(Cl)c1 (stereo unspecified)", "active"),
    ("COC(=O)C(Cc1cccc(O)c1)NC(=O)C(CC(=O)OCc1ccccc1)NC(=O)OCc1ccccc1 (stereo unspecified) (Cbz-Asp(OBn)-[mTyr]-OMe; configuration not given here)", "active"),
    ("C/C(=N/NC(=O)C[n+]1ccccc1)C(CN(CC(C)C)CC(C)C)C(=O)Nc1ccc(C)cc1C (stereo unspecified)", "inactive"),
    ("CCN(CC)CCC(=O)c1ccc2c3c(n(C)c2c1)CCCC3", "inactive"),
    ("C1CCC(CCNCCC2CCCCC2)CC1", "active"),
    ("N#CS/C=C/SC#N", "active"),
    ("O=C1c2c(F)c(F)c(F)c(F)c2SC2=NCCN12", "active"),
    ("C=CCOc1ccc(C2(c3ccc(OCC=C)cc3)C(=O)Nc3ccccc32)cc1", "active"),
    ("O=[N+]([O-])c1ccc2c(c1)Cc1cc(Cl)ccc1-2", "active"),
    ("Cc1ccc(N2C(=O)C(C)SC2=S)cc1Cl (stereo unspecified)", "inactive"),
    ("CCCCCCCCCCCCCCCCOS(=O)(=O)O", "active"),
    ("NNC(=O)c1ccccc1SSc1ccccc1C(=O)NN", "active"),
    ("Cc1cccc(CC(C)(C)C)c1NC(=O)C(=O)C(C(=O)c1ccc2ccccc2c1)C1OC(=O)c2ccccc21 (stereo unspecified)", "inactive"),
    ("C=CCNC(=S)N/N=C/c1nccc(-c2ccccc2)c1C", "active"),
    ("Cc1c(Cl)c(Cl)cc([N+](=O)[O-])c1Cl", "inactive"),
    ("COc1cc2c(Cc3ccc(OC)c(OC)c3)[n+](Cc3ccccc3)ccc2cc1NCc1ccccc1", "active"),
    ("CC1(C)N=C(N)N=C(N)N1c1cccc(OCc2cccc(N)c2)c1", "inactive"),
    ("ClC1(c2ccccc2)c2ccccc2-c2ccccc21", "inactive"),
    ("CC(=O)N(/C=C\\c1sc2ccccc2[n+]1C)c1ccccc1", "active"),
    ("O=C(CCl)N(Cc1ccccc1)Cc1ccccc1", "inactive"),
    ("C=C1CC(O)C2C(C[Se]c3ccccc3)C(=O)O[C@@H]2C2C(=C)[C@@H](O)CC12 (stereo partly specified)", "inactive"),
    ("Cc1cccc(-c2csc(N)n2)c1", "inactive"),
    ("O=[N+]([O-])c1cccc(S(=O)(=O)Nc2cccc3ccccc23)c1", "active"),
    ("COc1ccc(C2NCc3c(sc4c3CCCC4)-n3cccc32)cc1 (stereo unspecified)", "inactive"),
    ("CN(C)Cc1cc(N=Nc2ccc(Cl)c(Cl)c2)ccc1O", "active"),
    ("CN(NC1OC(=O)c2ccccc21)c1ccc(C(F)(F)F)cc1[N+](=O)[O-] (stereo unspecified)", "active"),
    ("Fc1ccc(CN2COc3c(ccc4cccnc34)C2)cc1", "inactive"),
    ("Cc1ccc(N2CC(O)CN(c3ccc(C)cc3)CC(O)C2)cc1 (stereo unspecified)", "inactive"),
    ("O=c1oc(-c2cc([N+](=O)[O-])cc([N+](=O)[O-])c2Cl)nc2ccccc12", "inactive"),
    ("COc1ccccc1C(=O)N(Cc1ccccc1)c1ccc(Cl)c(C(=O)OC(C)C)c1", "inactive"),
    ("CCOC(=O)C(=O)N1C(C)=C(C(=O)OCC)CC(C(=O)OCC)=C1C", "inactive"),
    ("CN(C)c1ccccc1[CH2][Ga]([Cl])[CH2]c1ccccc1N(C)C", "active"),
    ("O=C(Nc1ccc(Cl)cc1)OCC1C2C=CC(C2)C1CO (stereo unspecified)", "inactive"),
]
